Can you tell me pIC50 for the items I'm about to list?
Target: Glyceraldehyde-3-phosphate dehydrogenase, glycosomal (Trypanosoma cruzi, UniProt P22513)
Sequence (P22513 whole entry): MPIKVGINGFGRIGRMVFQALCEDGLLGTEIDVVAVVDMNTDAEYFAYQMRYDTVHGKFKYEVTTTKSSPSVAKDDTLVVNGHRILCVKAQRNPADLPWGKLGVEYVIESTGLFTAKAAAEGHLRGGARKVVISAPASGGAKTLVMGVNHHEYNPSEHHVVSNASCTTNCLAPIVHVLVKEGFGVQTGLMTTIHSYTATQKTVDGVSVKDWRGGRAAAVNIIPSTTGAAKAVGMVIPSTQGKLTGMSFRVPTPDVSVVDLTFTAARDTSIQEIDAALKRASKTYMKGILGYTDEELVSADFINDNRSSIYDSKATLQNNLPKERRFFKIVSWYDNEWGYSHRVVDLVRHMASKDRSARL
Experiment: Inhibition of Trypanosoma cruzi recombinant glycosomal GAPDH expressed in Escherichia coli by spectrophotometry
One number for each entry, as −log10 of the molar value.

[[record]]
smiles_input = "C=CC/C=C/C/C=C/CCCCCCCc1cccc(O)c1C(=O)O"
measured_result = 4.42

[[record]]
smiles_input = "CCC/C=C/C/C=C/CCCCCCCc1cccc(O)c1C(=O)O"
measured_result = 4.16

[[record]]
smiles_input = "CC(=O)Oc1ccc(-c2cc3cc(OC(C)=O)c(OC(C)=O)cc3oc2=O)cc1OC(C)=O"
measured_result = 4.75

[[record]]
smiles_input = "O=c1ccc2ccc(O)cc2o1"
measured_result = 3.21


Would you mind giving pIC50 for every compound in the list below?
1. COc1cc2oc(-c3cc(OC)c(OC)c(OC)c3)cc(=O)c2cc1OC
2. COc1ccc(-c2coc3cc(O)c(OC)cc3c2=O)cc1
3. O=c1c(O)c(-c2ccc(O)c(O)c2)oc2cc(O)cc(O)c12
4. O=c1ccc2ccccc2o1

[reply]
1: 4.09; 2: 4.08; 3: 3.85; 4: 3.16
